experimental-details: Acute ulcerogenic activity in Sprague-Dawley male rat assessed as ulcer index at 50 mg/kg/day, po administered for 3 days
Format: toxicity, organism-based
assay-setup: in vivo, 72 h, time 3 day
outcome-measure: UI
Answers are plain numbers.

>  <compound>
COc1ccc2c(c1)c(CC(=O)O)c(C)n2C(=O)c1ccc(Cl)cc1 [INDOMETHACIN]

>  <UI>
22.33

$$$$

Consider the following items and state reported UI for each.
1. Cc1ccc(C2SCC(=O)N2c2ccc(OCC(=O)Nc3ccc(F)cc3)cc2)cc1 (stereo not given)
2. COc1ccc(NC(=O)COc2ccc(N3C(=O)CSC3c3ccccc3)cc2)cc1 (stereo not given)
3. Cc1ccc(-c2cc(C(F)(F)F)nn2-c2ccc(S(N)(=O)=O)cc2)cc1 [CELECOXIB]
4. Cc1ccc(C2SCC(=O)N2c2ccc(OCC(=O)Nc3ccc(Cl)cc3)cc2)cc1 (stereo not given)

Reply text:
14.27
5
8.34
15.33
